Entry source: PubChem BioAssay AID1159580

Assay: chemical genetic growth profiling, strain panel (AID 1159580);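 also: tested at 20 µM; growth read once vehicle control cultures reached saturation at 30 °C; 1 = growth at the plate median or of vehicle wells; lower values mean less growth of the strain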
Settings: S. cerevisiae deletion strains, growth OD, locus YJL168C, strain set2, stronger effect = lower value
The whole screen tested about 5,500 compounds, of which about 2,000 (36%) were called active. Not shown: some 18% with an inconclusive outcome. The list shows a part of the results.
READOUT TYPE: normalized growth
One number for each entry.

Here are 5 molecules together with their reported answers.
CC(C)c1ccc2c(c1O)CC[C@H]1C3=C(CC[C@]21C)C(=O)OC3    0.989
O=c1[nH]c2cc(Cl)c(Cl)cc2[nH]c1=O    1.02
CC(=O)O[C@H]1C[C@H](O[C@H]2[C@@H](O)C[C@H](O[C@H]3[C@@H](O)C[C@H](O[C@H]4CC[C@@]5(C)C(CCC6C5C[C@@H](O)[C@]5(C)[C@@H](C7=CC(=O)OC7)CC[C@]65O)C4)O[C@@H]3C)O[C@@H]2C)O[C@H](C)[C@H]1O[C@@H]1O[C@H](CO)[C@@H](O)[C@H](O)[C@H]1O (some centres not stated)    0.982
COc1ccc(-c2coc3cc(OC)cc(O)c3c2=O)cc1    0.975
N[C@@H]1CONC1=O    1.01

Batch: normalized growth for all items listed.
1. COC(=O)C[C@H]1C(C)(C)C(=O)[C@@H]2CC3=C4CC(OC)O[C@@H](c5ccoc5)[C@]4(C)CCC3[C@@]1(C)C2=O (some centres not stated)
2. CCC1C2CC3C4N(C)c5ccccc5C45CC(C2C5OC(C)=O)N3C1OC(C)=O (configuration not stated)

result:
1. 0.996
2. 1.02
